Sourced from patent US20230272055A1

# Target: T1, human mutCALR on BaF3 cells stably expressing human MPL and human mutCALR (MPL-mutCALR cells) (human)
# T1 construct: also called mutant calreticulin
# T1 chain: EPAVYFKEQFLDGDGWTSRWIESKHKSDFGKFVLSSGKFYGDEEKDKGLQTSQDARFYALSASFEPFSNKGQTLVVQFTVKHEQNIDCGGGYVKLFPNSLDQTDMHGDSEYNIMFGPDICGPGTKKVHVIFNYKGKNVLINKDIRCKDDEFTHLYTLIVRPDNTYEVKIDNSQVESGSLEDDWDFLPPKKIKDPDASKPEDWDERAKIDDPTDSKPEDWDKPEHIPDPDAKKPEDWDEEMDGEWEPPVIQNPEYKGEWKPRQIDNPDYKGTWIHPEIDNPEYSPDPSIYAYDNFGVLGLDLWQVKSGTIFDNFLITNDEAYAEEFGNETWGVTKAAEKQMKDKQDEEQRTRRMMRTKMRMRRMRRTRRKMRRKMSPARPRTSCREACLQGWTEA
# Protocol Text: flow cytometry, BaF3 MPL-mutCALR cells

Binder	EC50 [µg/mL]
anti-mutCALR antibody clone 2 (antibody, human IgG1, lambda, V domains shown, human IgG1) VH: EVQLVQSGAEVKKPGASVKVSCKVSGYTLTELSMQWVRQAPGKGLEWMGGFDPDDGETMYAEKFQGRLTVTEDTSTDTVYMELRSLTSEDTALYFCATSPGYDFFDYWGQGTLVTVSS VL: SYELTQPPSVSVAPGKTARITCGGDNIGSKSVHWYQQKPGQAPVLVVYDDSDRPSGIPERFSGSNSGNTATLTISRVEAGDEADYYCQVWDSSIDHLIFGGGTKVTVLG	0.01
anti-mutCALR antibody clone 36 (antibody, human IgG1, lambda, V domains shown, human IgG1) VH: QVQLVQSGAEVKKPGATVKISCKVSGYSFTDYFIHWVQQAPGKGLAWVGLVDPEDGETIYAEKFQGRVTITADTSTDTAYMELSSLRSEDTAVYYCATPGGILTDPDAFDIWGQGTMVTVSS VL: QSALTQPRSVSGSPGQSVTISCAGTGSDVGGYNYVSWYQHHPGKAPKLMIYDVNKRPSGVPDRFSGSKSGNTASLTISGLQAEDEADYYCSSYTSSSTFYVFGTGTKVTVLG	0.01
anti-mutCALR antibody clone 132 (antibody, human IgG1, lambda, N297A, V domains shown) VH: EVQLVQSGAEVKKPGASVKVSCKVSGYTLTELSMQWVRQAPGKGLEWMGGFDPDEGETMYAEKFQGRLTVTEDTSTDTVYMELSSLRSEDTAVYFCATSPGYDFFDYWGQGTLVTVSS VL: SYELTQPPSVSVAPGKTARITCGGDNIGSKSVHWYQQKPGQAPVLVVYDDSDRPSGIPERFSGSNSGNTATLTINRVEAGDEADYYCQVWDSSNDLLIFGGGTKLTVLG	0.0004
anti-mutCALR antibody clone 136 (antibody, human IgG1, lambda, N297A, V domains shown) VH: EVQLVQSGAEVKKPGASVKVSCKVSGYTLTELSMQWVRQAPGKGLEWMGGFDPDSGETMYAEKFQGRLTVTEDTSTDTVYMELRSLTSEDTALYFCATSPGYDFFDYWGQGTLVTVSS VL: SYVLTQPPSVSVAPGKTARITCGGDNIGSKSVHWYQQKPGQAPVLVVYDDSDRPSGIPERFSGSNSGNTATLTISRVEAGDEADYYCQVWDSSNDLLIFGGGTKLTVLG	0.002
anti-mutCALR antibody clone 51 (antibody, human IgG1, lambda, V domains shown, human IgG1) VH: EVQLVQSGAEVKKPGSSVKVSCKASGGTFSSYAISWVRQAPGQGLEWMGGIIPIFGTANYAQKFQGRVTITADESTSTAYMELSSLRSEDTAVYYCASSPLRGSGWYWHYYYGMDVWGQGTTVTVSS VL: SYELTQPPSVSVAPGKTARITCGGNKIGTKSVHWYQQKPGQAPVLVIYQDSKRPSGIPERFSGSNSGNTATLTISGTQAMDEADYYCQAWGSSTVVFGGGTKLTVLG	1.15
